This collection of values is drawn from patent US9938261B2.

target: FLT3 (Homo sapiens, UniProt P36888); construct: made in house; experiment: Competition binding assay, FLT3 Kd; conditions: competition binding
Sequence (P36888 27-993): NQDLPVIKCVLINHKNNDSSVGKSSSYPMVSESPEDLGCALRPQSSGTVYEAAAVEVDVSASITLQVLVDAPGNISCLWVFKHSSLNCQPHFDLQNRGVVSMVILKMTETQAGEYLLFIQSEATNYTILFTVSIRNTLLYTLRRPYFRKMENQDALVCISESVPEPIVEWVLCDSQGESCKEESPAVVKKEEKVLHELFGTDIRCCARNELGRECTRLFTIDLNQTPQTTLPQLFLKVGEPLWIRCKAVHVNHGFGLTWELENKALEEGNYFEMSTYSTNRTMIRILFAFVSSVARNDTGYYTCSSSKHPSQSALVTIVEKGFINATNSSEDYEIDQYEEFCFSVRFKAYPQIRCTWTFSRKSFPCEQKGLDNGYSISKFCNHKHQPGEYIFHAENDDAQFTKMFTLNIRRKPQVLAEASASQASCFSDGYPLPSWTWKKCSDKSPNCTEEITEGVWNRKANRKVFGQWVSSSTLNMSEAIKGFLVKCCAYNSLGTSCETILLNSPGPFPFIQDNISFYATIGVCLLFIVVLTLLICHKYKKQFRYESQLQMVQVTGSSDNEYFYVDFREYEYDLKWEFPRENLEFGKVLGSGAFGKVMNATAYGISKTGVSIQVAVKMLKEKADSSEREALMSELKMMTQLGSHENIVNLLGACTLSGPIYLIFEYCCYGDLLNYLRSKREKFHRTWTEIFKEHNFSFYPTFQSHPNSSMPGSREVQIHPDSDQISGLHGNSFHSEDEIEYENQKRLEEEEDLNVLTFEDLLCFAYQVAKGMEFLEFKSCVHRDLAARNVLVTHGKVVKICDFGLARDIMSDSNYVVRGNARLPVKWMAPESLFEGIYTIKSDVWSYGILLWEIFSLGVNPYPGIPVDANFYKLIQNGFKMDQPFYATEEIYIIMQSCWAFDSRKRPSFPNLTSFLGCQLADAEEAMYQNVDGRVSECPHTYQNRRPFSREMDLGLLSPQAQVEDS
MEASURE: Kd

1) O[C@@H]1CCCC[C@H]1Nc1nc2ccc(Cn3cnc4cc(C5=CCNCC5)ccc43)cc2s1	0.2 to 1 µM
2) C=Cc1cc(F)c2c(c1)ncn2Cc1ccc2nc(N[C@@H]3CCCC[C@H]3O)sc2c1	≤ 0.2 µM
3) CS(=O)(=O)c1ccc2ncn(Cc3ccc4nc(N[C@@H]5CCCC[C@H]5O)sc4c3)c2c1	1 to 5 µM
4) OC[C@H]1CC[C@@H](Nc2nc3ccc(Cn4cnc5cc(F)cnc54)cc3s2)CC1	1 to 5 µM
5) C=C(c1ccc2c(c1)ncn2Cc1ccc2nc(N[C@@H]3CCCC[C@H]3O)sc2c1)C(F)(F)F	0.2 to 1 µM
6) O[C@@H]1CCCC[C@H]1Nc1nc2ccc(Cc3cnc4cccnn34)cc2s1	≤ 0.2 µM
7) COCCOc1ccn2c(Cc3ccc4nc(N[C@@H]5CCCC[C@H]5O)sc4c3)cnc2c1	1 to 5 µM
8) COc1nc2c(cc1C#N)ncn2Cc1ccc2nc(N[C@@H]3CCCC[C@H]3O)sc2c1	0.2 to 1 µM
